tested on: Escherichia coli; assay: Growth inhibition of Escherichia coli ATCC 25922 incubated for 18 hrs; format: organism-based
Property: MIC

Example entries begin here.
INSERT INTO assay_data (smiles_entry, property, reading) VALUES
  ('CC(C)CCOc1ccccc1-c1ccccc1OCc1cn([C@H](CCCNC(=N)N)C(=O)NC2CCCCC2)nn1.Cl', 'MIC', '> 32 µg/mL'),
  ('CC(C)CCOc1ccccc1-c1ccccc1OCc1cn([C@H](CCCCN)C(=O)NCc2ccccc2)nn1.Cl', 'MIC', '> 32 µg/mL');

Here's the next entry for you.
Which MIC is listed for "CC(C)CCOc1ccc2ccccc2c1-c1c(OCC(=O)N[C@H](CCCNC(=N)N)C(=O)NCCc2ccc(F)cc2)ccc2ccccc12.Cl" ?
> 32 µg/mL

----------
tested on: Staphylococcus aureus; experiment: Growth inhibition of Staphylococcus aureus ATCC 29213 incubated in MHB broth for 24 hrs; type: organism-based
Give MIC for every item shown.

Example molecules with recorded MIC:
INSERT INTO assay_data (smiles_entry, reading) VALUES
  ('CC(C)CCOc1ccccc1-c1ccccc1OCc1cn([C@H](CCCNC(=N)N)C(=O)NCCc2ccc(F)cc2)nn1.Cl', '4 µg/mL'),
  ('CCCN(CC1CC1)C(=O)[C@@H](CCCNC(=N)N)n1cc(COc2ccccc2-c2ccccc2OCCC(C)C)nn1.Cl', '4 µg/mL'),
  ('CC(C)CCOc1ccccc1-c1ccccc1OCc1cn([C@H](CCCNC(=N)N)C(=O)N[C@H](CCCCN)Cn2cc(C3CCCCC3)nn2)nn1.Cl.Cl', '8 µg/mL'),
  ('CN[C@H](CC(C)C)C(=O)N[C@H]1C(=O)N[C@@H](CC(N)=O)C(=O)N[C@H]2C(=O)N[C@H]3C(=O)N[C@H](C(=O)N[C@H](C(=O)O)c4cc(O)cc(O)c4-c4cc3ccc4O)[C@H](O)c3ccc(c(Cl)c3)Oc3cc2cc(c3O[C@@H]2O[C@H](CO)[C@@H](O)[C@H](O)[C@H]2O[C@H]2C[C@](C)(N)[C@H](O)[C@H](C)O2)Oc2ccc(cc2Cl)[C@H]1O', '1 µg/mL'),
  ('CC(C)CCOc1ccc2ccccc2c1-c1c(OCc2cn([C@H](CCCNC(=N)N)C(=O)N[C@H](CCCCN)Cn3cc(CC4CCCCC4)nn3)nn2)ccc2ccccc12.Cl.Cl', '4 µg/mL');

Request the reported MIC associated with "CC(C)CCOc1ccc2ccccc2c1-c1c(OCC(=O)N[C@H](CCCNC(=N)N)C(=O)NCCc2ccc(F)cc2)ccc2ccccc12.Cl"
> 128 µg/mL
